# Target: B-RAF V600E (Homo sapiens, UniProt P15056, V600E)
# Construct: expressed in transfected cells; host or cells: T-Rex 293 cells (Invitrogen #R71007)
# Sequence (P15056 whole entry V600E): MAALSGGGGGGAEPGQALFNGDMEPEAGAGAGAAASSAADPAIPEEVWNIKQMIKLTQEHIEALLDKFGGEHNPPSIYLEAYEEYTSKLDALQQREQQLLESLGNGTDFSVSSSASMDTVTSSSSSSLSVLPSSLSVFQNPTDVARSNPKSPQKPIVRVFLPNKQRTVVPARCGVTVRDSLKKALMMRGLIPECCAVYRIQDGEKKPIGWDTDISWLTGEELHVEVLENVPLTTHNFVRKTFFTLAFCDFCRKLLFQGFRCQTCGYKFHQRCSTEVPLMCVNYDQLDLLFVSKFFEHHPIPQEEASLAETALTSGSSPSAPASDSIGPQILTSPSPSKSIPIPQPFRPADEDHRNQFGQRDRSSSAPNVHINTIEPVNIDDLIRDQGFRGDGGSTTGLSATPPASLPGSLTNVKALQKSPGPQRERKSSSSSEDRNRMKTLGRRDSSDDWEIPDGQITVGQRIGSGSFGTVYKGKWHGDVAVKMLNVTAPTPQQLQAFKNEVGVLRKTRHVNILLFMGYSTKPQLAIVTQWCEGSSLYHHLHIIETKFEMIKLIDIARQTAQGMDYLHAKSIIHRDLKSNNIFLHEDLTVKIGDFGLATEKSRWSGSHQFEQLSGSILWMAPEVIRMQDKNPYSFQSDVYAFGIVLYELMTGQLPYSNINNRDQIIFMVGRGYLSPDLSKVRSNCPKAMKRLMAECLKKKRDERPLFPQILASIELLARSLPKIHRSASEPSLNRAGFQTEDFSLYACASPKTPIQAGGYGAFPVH
# Assay info: Target protein degradation, assay C: T-Rex 293 cells, HA-BRAF_V600E, 384 well format
# Assay type: cell-based
# Measurement context: T-REx-293, Assay C, T-Rex 293 HA-BRAF_V600E cells, 24 hours, Examples 83-269
Readout type: Dmax

N#Cc1c(NS(=O)(=O)N2CC[C@@H](F)C2)ccc(F)c1Oc1ccc2ncn(-c3ccc(N4CCN(CC5CN(c6ccc7c(c6)CN([C@@H]6CCC(=O)NC6=O)C7=O)C5)CC4)cc3)c(=O)c2c1 [Example 107]	35 to 70%
COc1cc(N2CC(CN3CCN(c4ccc(-n5cnc6ccc(Oc7c(F)ccc(NS(=O)(=O)N8CC[C@@H](F)C8)c7C#N)cc6c5=O)cc4)CC3)C2)cc2c1C(=O)N([C@@H]1CCC(=O)NC1=O)C2 [Example 237]	35 to 70%
CC(C)(C1CCN(c2ccc(-n3cnc4ccc(Oc5c(F)ccc(NS(=O)(=O)N6CC[C@@H](F)C6)c5C#N)cc4c3=O)cc2)CC1)N1CCN(c2ccc3c(c2)CN([C@H]2CCC(=O)NC2=O)C3=O)CC1 [Example 269]	35 to 70%
CN(CC1CCN(c2ccc(-n3cnc4ccc(Oc5c(F)ccc(NS(=O)(=O)N6CC[C@@H](F)C6)c5C#N)cc4c3=O)cc2)CC1)[C@H]1C[C@@H](Oc2ccc3c(c2)CN([C@H]2CCC(=O)NC2=O)C3=O)C1 [Example 206]	≥ 70%

Now look at this one.
[Q] Look up Dmax: N#Cc1c(NS(=O)(=O)N2CC[C@@H](F)C2)ccc(F)c1Oc1ccc2ncn(-c3ccc(N4CC5(CCN(CC6CCN(c7ccc8c(c7)CN([C@H]7CCC(=O)NC7=O)C8=O)CC6)CC5)C4)cc3)c(=O)c2c1 [Example 192]
[A] 35 to 70%

====

# Target: B-RAF G466V (Homo sapiens, UniProt P15056, G466V)
# Construct: expressed in transfected cells; host or cells: T-Rex 293 cells (Invitrogen #R71007)
# Sequence (P15056 whole entry G466V): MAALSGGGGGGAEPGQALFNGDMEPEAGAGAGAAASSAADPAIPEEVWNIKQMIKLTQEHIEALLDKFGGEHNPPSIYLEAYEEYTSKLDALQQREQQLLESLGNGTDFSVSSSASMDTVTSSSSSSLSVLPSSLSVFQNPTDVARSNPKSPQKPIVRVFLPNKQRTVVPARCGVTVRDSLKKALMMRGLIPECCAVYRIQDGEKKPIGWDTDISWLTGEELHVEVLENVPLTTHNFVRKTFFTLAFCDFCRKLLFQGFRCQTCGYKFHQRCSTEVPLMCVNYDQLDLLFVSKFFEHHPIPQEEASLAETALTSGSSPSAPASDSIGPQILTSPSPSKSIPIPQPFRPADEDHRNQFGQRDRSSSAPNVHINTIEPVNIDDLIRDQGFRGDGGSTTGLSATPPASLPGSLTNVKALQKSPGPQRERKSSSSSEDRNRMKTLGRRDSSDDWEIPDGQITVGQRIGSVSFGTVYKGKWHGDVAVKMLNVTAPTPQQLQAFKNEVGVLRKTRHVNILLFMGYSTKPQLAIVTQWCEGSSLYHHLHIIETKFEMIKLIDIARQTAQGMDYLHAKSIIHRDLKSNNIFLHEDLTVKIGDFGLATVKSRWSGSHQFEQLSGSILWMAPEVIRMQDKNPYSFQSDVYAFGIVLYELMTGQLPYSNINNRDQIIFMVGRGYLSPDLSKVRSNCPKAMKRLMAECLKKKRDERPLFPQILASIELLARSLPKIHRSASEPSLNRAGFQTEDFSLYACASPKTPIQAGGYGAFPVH
# Assay info: Target protein degradation, assay B: T-Rex 293 cells, HA-B-RAF_G466V, 96 well format
# Type: cell-based
# Measurement context: T-Rex 293 HA-B-RAF_G466V cells, 24 hours, Examples 1-82
Readout type: DC50

A selection of reference data follows.
N#Cc1c(NS(=O)(=O)N2CC[C@@H](F)C2)ccc(F)c1Oc1ccc2ncn(-c3ccc(N4CCN(CC5CCN(c6ccc(C7CCC(=O)NC7=O)cc6F)CC5)CC4)nc3)c(=O)c2c1 (stereo partly shown) [Example 14]	> 30 nM
N#Cc1c(NS(=O)(=O)N2CC[C@@H](F)C2)ccc(F)c1Oc1ccc2ncn(-c3ccc(N4CCN(CC5CCN(c6ccc(F)c(C(=O)NC7CCC(=O)NC7=O)c6)CC5)CC4)cc3)c(=O)c2c1 (stereo partly shown) [Example 15]	> 30 nM
N#Cc1c(NS(=O)(=O)N2CC[C@@H](F)C2)ccc(F)c1Oc1ccc2ncn(-c3ccc(N4CCN(c5ccc6c(c5)C(=O)N(C5CCC(=O)NC5=O)C6=O)CC4)cc3)c(=O)c2c1 (stereo partly shown) [Example 71]	> 30 nM
N#Cc1c(NS(=O)(=O)N2CC[C@@H](F)C2)ccc(F)c1Oc1ccc2ncn(-c3ccc(N4CCN(C(=O)CC5(O)CCN(c6ccc(NC7CCC(=O)NC7=O)cc6F)CC5)CC4)cc3)c(=O)c2c1 (stereo partly shown) [Example 67]	> 30 nM
N#Cc1c(NS(=O)(=O)N2CC[C@@H](F)C2)ccc(F)c1Oc1ccc2ncn(-c3ccc(N4CCN(c5ccc(C(=O)NC6CCC(=O)NC6=O)c(F)c5)CC4)cc3)c(=O)c2c1 (stereo partly shown) [Example 72]	> 30 nM

[Q] GET /values?readout=DC50&item= N#Cc1c(NS(=O)(=O)N2CC[C@@H](F)C2)ccc(F)c1Oc1ccc2ncn(-c3ccc(N4CCN(CCN5CCN(c6ccc7c(c6)CN(C6CCC(=O)NC6=O)C7=O)CC5)CC4)cc3)c(=O)c2c1 (stereo partly shown) [Example 10]
[A] > 30 nM

[Q] Looking for the measured DC50 of N#Cc1c(NS(=O)(=O)N2CC[C@@H](F)C2)ccc(F)c1Oc1ccc2ncn(-c3ccc(N4CCC(OC5CCN(c6ccc7c(c6)CN(C6CCC(=O)NC6=O)C7=O)CC5)CC4)cc3)c(=O)c2c1 (stereo partly shown) [Example 82] , can you help?
[A] 1 to 10 nM

[Q] Returns the measured DC50 for the input molecule. Input: N#Cc1c(NS(=O)(=O)N2CC[C@@H](F)C2)ccc(F)c1Oc1ccc2ncn(-c3ccc(N4CCN(CC5CCN(c6ccc([C@H]7CCC(=O)NC7=O)cc6F)CC5)CC4)cc3)c(=O)c2c1 (single isomer, unassigned) [Example 80]
[A] 1 to 10 nM

[Q] Query: DC50; subject: N#Cc1c(NS(=O)(=O)N2CC[C@@H](F)C2)ccc(F)c1Oc1ccc2ncn(-c3ccc(N4CCN(CC5CN(c6ccc7c(c6)CN(C6CCC(=O)NC6=O)C7=O)C5)CC4)cc3)c(=O)c2c1 (stereo partly shown) [Example 2]
[A] ≤ 1 nM
